Origin of values: patent US20260234276A1

Molecular target: human CCR8 (human, UniProt P51685 1-355)
Experiment: cell-based or functional assay
Measured attribute: hCCL1 (100 nM) residual response, Protocol #3, mAb 0.5 µg/mL (%)

[
  {
    "Binder": "3-82 (antibody, human IgG1, kappa, V domains shown, humanized, human IgG1 kappa) VH: QVQLVESGGGVVQPGRSLRLSCAASGFTFSNYRMHWVRQAPGKGLEWIAVIKVKSDNYGANYADSVKGRFTISRDNSKNTLYLQMNSLRAEDTAVYYCSSPTYPGSSGFAYWGQGTLVTVSS VL: DIQMTQSPSSLSASVGDRVTITCRASQDISNYLNWYQQKPDGTVKLLIYYTSRLHTGVPSRFSGSGSGTDYTLTISNLQQEDIATYFCQQGNKFPPTFGGGTKVEINR",
    "Measured value": 85
  },
  {
    "Binder": "3-33 (antibody, V domains shown) VH: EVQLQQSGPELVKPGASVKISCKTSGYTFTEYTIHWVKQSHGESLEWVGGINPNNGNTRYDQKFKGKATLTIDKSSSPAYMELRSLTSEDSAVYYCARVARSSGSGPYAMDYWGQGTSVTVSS VL: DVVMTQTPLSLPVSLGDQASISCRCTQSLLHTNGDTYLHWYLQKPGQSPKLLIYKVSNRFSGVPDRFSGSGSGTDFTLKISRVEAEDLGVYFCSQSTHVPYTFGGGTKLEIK",
    "Measured value": 57
  },
  {
    "Binder": "3-79 (antibody, human IgG1, kappa, V domains shown, humanized, human IgG1 kappa) VH: EVQLLESGGGLVQPGGSLRLSCAASGFTFNAYAMNWVRQAPGKGLEWVARIRSKSNDYATYYGDSVKGRFTISRDNSKNTLYLQMNSLRAEDTAVYYCVRGREAYYRYDGGYYAMDVWGQGTTVTVSS VL: DIVMTQSPLSLPVTPGEPASISCRSSKSLLHSNGNTYLYWFLQKPGQSPQLLIYRVSNLASGVPDRFSGSGSGTDFTLKISRVEAEDVGVYYCMQHREYPFTFGQGTKLEIKR",
    "Measured value": 76
  }
]
